From: patent US8686022B2

# targetDesc: cytochrome P450 2C9 (Homo sapiens)
# experiment: Determining the cyp2C9 activity (O-demethylation of [O-methyl-14C]-naproxen)
# studyConditions: human recombinant cytochrome P450 2C9; 37° C.; <0.4 μM when inhibition >50% at lowest concentration; read-out: CYP 2C9 IC50
pIC50: −log10 of the molar value.
resultType: pIC50

compound	resultType	value
COc1c(NC(=O)c2cc3cccc(CN4CCN(C(=O)CN5CCC(N(C)C)CC5)CC4)c3n2C)cc(C(C)(C)C)cc1NS(C)(=O)=O [Example 6]	pIC50	5.46
COc1c(NC(=O)c2cc3cccc(CN4CCN(C(=O)[C@@H]5CCCN5C)CC4)c3n2C)cc(C(C)(C)C)cc1C(=O)NC1CC1 [Example 10]	pIC50	5.88
COc1c(NC(=O)c2cc3cccc(CN4CCN(C(=O)CN5CC[C@@H](O)C5)CC4)c3n2C)cc(C(C)(C)C)cc1NS(C)(=O)=O [6(1)]	pIC50	6.33

I: COc1c(NC(=O)c2cc3cccc(CC4CCN(C(=O)[C@@H]5CCCN5C)CC4)c3n2C)cc(C(C)(C)C)cc1NS(C)(=O)=O [1(7)]
II: COc1c(C[S+](C)[O-])cc(C(C)(C)C)cc1NC(=O)c1cc2cccc(CN3CCN(C(=O)[C@@H]4CCCN4C)CC3)c2n1C (stereo partly drawn) [11(6)]
Q: I or II : whose pIC50 is greater? When you have decided, please share the label of that item.
Ans: I

----------
# experiment: Determining the solubility (saturated solution in McIlvaine buffer pH 7.4, UV spectroscopy)
# Assay type: physicochemical
# studyConditions: pH 7.4, aqueous buffer, thermodynamic from solid, shaken 2 hours, 0.75 mg solid in 0.75 ml
resultType: solubility at 2 h (µg/mL)

Sample records with solubility at 2 h:
molecule	solubility at 2 h / µg/mL
COc1c(NC(=O)c2cc3cccc(CN4CCN(C(=O)[C@@H]5CCCN5C)CC4)c3n2C)cc(C(C)(C)C)cc1NC(=O)C(C)C	91
COc1c(NC(=O)c2cc3cccc(CC4CCCN(C(=O)[C@@H]5CCCN5C)CC4)c3n2C)cc(C(C)(C)C)cc1NS(C)(=O)=O (stereo partly drawn)	80
COc1c(NC(=O)c2cc3cccc(CN4CCN(C(=O)N5CC[C@@H](N(C)C)C5)CC4)c3n2C)cc(C(C)(C)C)cc1NS(C)(=O)=O	10

1: CNC(=O)c1cc(C(C)(C)C)cc(NC(=O)c2cc3cccc(CN4CCN(C(=O)[C@@H]5CCCN5C)CC4)c3n2C)c1OC
2: COc1c(NC(=O)c2cc3cccc(CN4CCN(C(=O)[C@@H]5C[C@@H](O)CN5C)CC4)c3n2C)cc(C(C)(C)C)cc1NS(C)(=O)=O
Q: 1 or 2 : whose solubility at 2 h is greater? When you have decided, please share the label of that item.
Ans: 1
(1: 590 µg/mL, 2: 84 µg/mL)

----------
# experiment: Determining the solubility (saturated solution in McIlvaine buffer pH 7.4, UV spectroscopy)
# Assay type: physicochemical
# studyConditions: pH 7.4, aqueous buffer, thermodynamic from solid, shaken 2 hours, 0.75 mg solid in 0.75 ml
resultType: solubility at 2 h (µg/mL)

compound	solubility at 2 h (µg/mL)
COc1c(NC(=O)c2cc3cccc(CN4CCC(C(=O)N5CC[C@@H](N(C)C)C5)CC4)c3n2C)cc(C(C)(C)C)cc1NS(C)(=O)=O	36
COc1c(NC(=O)c2cc3cccc(CN4CCN(C(=O)[C@@H]5CCCN5C)CC4)c3n2C)cc(C(C)(C)C)cc1NS(C)(=O)=O	340

P: COc1c(NC(=O)c2cc3cccc(CN4CCN(C(=O)[C@@H]5CCCN5C)CC4)c3n2C)cc(C(C)(C)C)cc1C(=O)NC1CC1
Q: COc1c(NC(=O)c2cc3cccc(CN4CCN(C(=O)C(C)N5CCCC5)CC4)c3n2C)cc(C(C)(C)C)cc1NS(C)(=O)=O (stereo not shown)
Q: Of P and Q , whose reported solubility at 2 h is numerically smaller? When you have decided, please share the label of that item.
Ans: Q

----------
# targetDesc: cytochrome P450 2C9 (Homo sapiens, UniProt P11712)
# Sequence (P11712 whole entry): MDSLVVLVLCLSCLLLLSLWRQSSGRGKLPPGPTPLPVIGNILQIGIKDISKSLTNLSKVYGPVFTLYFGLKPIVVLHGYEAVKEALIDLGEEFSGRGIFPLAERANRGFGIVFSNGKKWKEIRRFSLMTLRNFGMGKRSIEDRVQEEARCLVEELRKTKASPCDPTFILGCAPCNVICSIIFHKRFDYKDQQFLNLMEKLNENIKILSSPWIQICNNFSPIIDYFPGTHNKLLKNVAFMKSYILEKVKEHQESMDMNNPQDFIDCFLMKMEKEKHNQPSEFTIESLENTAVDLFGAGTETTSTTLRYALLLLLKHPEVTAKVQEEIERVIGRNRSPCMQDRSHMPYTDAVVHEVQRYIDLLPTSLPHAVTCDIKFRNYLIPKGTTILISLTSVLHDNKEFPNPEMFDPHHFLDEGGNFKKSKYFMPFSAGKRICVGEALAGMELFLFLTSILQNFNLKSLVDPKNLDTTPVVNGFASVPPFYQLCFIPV
# experiment: Determining the cyp2C9 activity (O-demethylation of [O-methyl-14C]-naproxen)
# studyConditions: human recombinant cytochrome P450 2C9; 37° C.; <0.4 μM when inhibition >50% at lowest concentration; read-out: CYP 2C9 IC50
resultType: IC50 (nM)

a: COc1c(NC(=O)c2cc3cccc(CN4CCN(C(=O)[C@H]5C[C@H](O)CN5C)CC4)c3n2C)cc(C(C)(C)C)cc1NS(C)(=O)=O
b: COc1c(NC(=O)c2cc3cccc(CN4CCN(C(=O)[C@@H]5CCCN5C)CC4)c3n2C)cc(CC(C)C)cc1NS(C)(=O)=O
c: COc1c(NC(=O)c2cc3cccc(CN4CCN(C(=O)C5CNC5)CC4)c3n2C)cc(C(C)(C)C)cc1NS(C)(=O)=O
Q: List the 3 compounds shown above, ordered by increasing IC50. In plain terms: list the labels in the order you were asked to.
Ans: a, c, b
(a: 410 nM, c: 1260 nM, b: 5770 nM)

----------
# targetDesc: UniProt:P11712
# experiment: Determining the cyp2C9 activity (O-demethylation of [O-methyl-14C]-naproxen)
# studyConditions: human recombinant cytochrome P450 2C9; 37° C.; <0.4 μM when inhibition >50% at lowest concentration; read-out: CYP 2C9 IC50
pIC50: −log10 of the molar value.
resultType: pIC50

Sample records with pIC50:
molecule	value
CNC(=O)c1cc(C(C)(C)C)cc(NC(=O)c2cc3cccc(CN4CCN(C(=O)[C@@H]5CCCN5C)CC4)c3n2C)c1OC	5.80
COc1c(NC(=O)c2cc3cccc(CN4CCN(C(=O)[C@@H]5CCCN5C)CC4)c3n2C)cc(C(C)(C)C)cc1C(=O)NC(C)C	5.89
COc1c(NC(=O)c2cc3cccc(CN4CCN(C(=O)[C@@H]5CCCN5C)CC4)c3n2C)cc(C(C)(C)C)cc1C(N)=O	6.36
COc1c(NC(=O)c2cc3cccc(CN4CCN(C(=O)[C@@H]5C[C@@H](O)CN5C)CC4)c3n2C)cc(C(C)(C)C)cc1NS(C)(=O)=O	5.99

A: COc1c(NC(=O)c2cc3cccc(CN4CCN(C(=O)[C@@H]5CCCN5C)CC4)c3n2C)cc(C(F)(F)C(F)(F)F)cc1NS(C)(=O)=O
B: COc1c(NC(=O)c2cc3cccc(CC4CCCN(C(=O)[C@@H]5CCCN5C)CC4)c3n2C)cc(C(C)(C)C)cc1NS(C)(=O)=O (stereo partly drawn)
Q: Of A and B , whose reported pIC50 is numerically smaller? When you have decided, please share the label of that item.
Ans: A
(A: 5.84, B: 6.08)

----------
# targetDesc: cytochrome P450 2C9 (Homo sapiens)
# experiment: Determining the cyp2C9 activity (O-demethylation of [O-methyl-14C]-naproxen)
# studyConditions: human recombinant cytochrome P450 2C9; 37° C.; <0.4 μM when inhibition >50% at lowest concentration; read-out: CYP 2C9 IC50
resultType: IC50 (nM)

Sample records with IC50:
compound	value
COc1c(NC(=O)c2cc3cccc(CN4CCN(C(=O)C5CCCN(C)C5)CC4)c3n2C)cc(C(C)(C)C)cc1NS(C)(=O)=O (stereo not shown)	440
COc1c(NC(=O)c2cc3cccc(CN4CCN(C(=O)CN5CCN(C)CC5)CC4)c3n2C)cc(C(C)(C)C)cc1NS(C)(=O)=O	990

P: COc1c(CO)cc(C(C)(C)C)cc1NC(=O)c1cc2cccc(CN3CCN(C(=O)[C@@H]4CCCN4C)CC3)c2n1C
Q: COc1c(NC(=O)c2cc3cccc(CN4CCN(C(=O)C(C)N5CCCC5)CC4)c3n2C)cc(C(C)(C)C)cc1NS(C)(=O)=O (stereo not shown)
Q: P or Q : whose IC50 is greater? When you have decided, please share the label of that item.
Ans: P
(P: 2540 nM, Q: 560 nM)

----------
# experiment: Determining the solubility (saturated solution in McIlvaine buffer pH 7.4, UV spectroscopy)
# Type: physicochemical
# studyConditions: pH 7.4, aqueous buffer, thermodynamic from solid, shaken 2 hours, 0.75 mg solid in 0.75 ml
resultType: solubility at 2 h (µg/mL)

Sample records with solubility at 2 h:
compound	solubility at 2 h, µg/mL
COc1c(NC(=O)c2cc3cccc(CN4CCN(C(=O)C5CCN(C)CC5)CC4)c3n2C)cc(C(C)(C)C)cc1NS(C)(=O)=O [Example 1]	360
CCC(=O)Nc1cc(C(C)(C)C)cc(NC(=O)c2cc3cccc(CN4CCN(C(=O)[C@@H]5CCCN5C)CC4)c3n2C)c1OC [Example 12]	660
COc1c(NC(=O)c2cc3cccc(CN4CCN(C(=O)C5CCN5C)CC4)c3n2C)cc(C(C)(C)C)cc1NS(C)(=O)=O (stereo not drawn) [1(5)]	670

A: COc1c(NC(=O)c2cc3cccc(CN4CCN(C(=O)[C@@H]5CCCN5C)CC4)c3n2C)cc(C(C)(C)C)cc1C(=O)NC(C)C [10(1)]
B: COc1c(NC(=O)c2cc3cccc(CN4CCN(C(=O)C5CCCN(C)C5)CC4)c3n2C)cc(C(C)(C)C)cc1NS(C)(=O)=O (stereo not drawn) [Example 4]
Q: Of A and B , whose reported solubility at 2 h is numerically smaller? When you have decided, please share the label of that item.
Ans: B
